Recorded PRNT IC50, CPXV MV, one value per entry.
Molecular target: CPXV ortholog of L1 (cowpox virus)
Assay: cell-based or functional assay
Please respond with the number in µg/mL and leave the unit unwritten.

Look over these answered cases.
INSERT INTO measurements (binder, reported_metric, unit_spec, observed_result) VALUES
  ('MPXV-87 (antibody, V domains shown) V domain 1: QVQLVQSGAEVKKPGASVKVSCKASGYTFTSHGIIWVRQAPGQGLEWMGWISVYNDNTNSAQKFQDRVTMTTATSTSTAYMELRSLRSDDTAVYYCARSSSGPRYYYYGMDVWGQGTTSP V domain 2: QSVVTQPPSVSGAPGQRVTISCTGSSSNIGAGYAVHWYYQLPGIAPKLLIFGNNNRPSGVPDRFSGSKSGTSASLAITGLQAEDEADYYCQSYDSSLSGWVFGGGTQVTVL', 'PRNT IC50, CPXV MV', 'µg/mL', 0.8),
  ('MPXV-26 (antibody, V domains shown) VH: QVQLVQSGGGLIQPGGSLRLSCVVSGFNVATNYMSWVRQAPGKGLEWVSVIYSGGSTYYADSVKGRFTISRDNSKNTVFLQMNSLRPEDTAAYYCAKGGGLGLDYWGQGTLVTVSS VL: QSALTQPPSASGSPGQSVTITCTGSSSDVGGYNYVSWYQQHPGKAPKVVIYEVNKRPSGVPHRFSGSKSGNTASLTVSGLQAEDEADYYCSSYAGTETVAFGGGTKLTVL', 'PRNT IC50, CPXV MV', 'µg/mL', 0.07),
  ('MPXV-83 (antibody, V domains shown) VH: QVQLVESGGGVVQPGRSLRLSCAASGFTFSSYSMHWVRQAPGKGLEWVAVISFDGRSNYYADSVRGRFTISRDNSKKTMYLQMNSLRLADTAVYYCARGGIGAPDPRNGLEVWGRGAPVTLSS VL: DIQMIQSPSSLSASVGDRVTISCQATQDISNSVNWYQQKPGKAPKLLIYDASTLETGVPSRFSGGGSGTHFTFTISSLQPEDIATYYCQQFHSLPPTFGQGPKGISK', 'PRNT IC50, CPXV MV', 'µg/mL', 0.2);

Field: next binder
Entry VACV-33 (antibody, V domains shown) VH: QLQLQESGPGLVKPSETLSLTCTVSGGSISSGGYYWGWIRQPPGKGLEWIASIYYSGSTYYNPSLKSRVTISVDTSKTQFSLKLSSVTAADTAVYYCARQSSSTGGFHYWGQGTLVTVSS VL: QSVLTQPPSVSGAPGQRVTISCTGSSSNIGAGYDVHWYQHLPGTAPKLLIYGNSNRPSGVPDRFSGSKSGTSASLAITGLQAEDEANYYCQSYDSSLSGREVFGGGTQLTVL needs its PRNT IC50, CPXV MV filled in; supply it.
0.5
